system: Trypanosoma cruzi; assay: Trypanosoma cruzi phosphomannomutase and mannose-1-phosphate guanylyltransferase assay; assay type: functional; parameters: scale not given: direction of the effect not stated beside the values; conditions: 10 µM
Measured Percent Effect by item
Assay endpoint: Percent Effect (%)

Compound	Assay endpoint	Unit text	Reported value
COC[C@@H]1CCC[C@]12CN(Cc1cccc(C)n1)CCO2	Percent Effect	%	-8.45
COCCNC(=O)[C@@]12CCO[C@@H]1CCN(Cc1c(C)noc1C)C2	Percent Effect	%	1.85
c1ccc(N2CCCC3(CCN(Cc4cccs4)C3)C2)nc1 (stereo unspecified)	Percent Effect	%	-2.81
CC(C)N1CCc2c(CN(C)Cc3ccco3)cncc2C1	Percent Effect	%	-3.86
COCCN1C[C@@H]2CN(Cc3cccc(C)n3)C[C@@H]2C1=O	Percent Effect	%	-24.2
c1cc(COC[C@@H]2CCC[C@@]23CNCCO3)ccn1	Percent Effect	%	-6.94

* * *

biological target: Shiga toxin 2 (Escherichia coli O157:H7) (UniProt P09385+P09386); test: E. coli 0.157:H7 Shiga Toxin SOP - stx2 screening assay; assay type: functional; parameters: scale not given: direction of the effect not stated beside the values; conditions: 30 µM
Measured Percent Effect by item

Compound	Unit text	Percent Effect
Cc1nc(N2CCCCC2)ncc1-c1cc(O)[nH]n1	%	-1.17
Cc1noc([C@H]2CC[C@@H]3[C@@H](CCN3S(C)(=O)=O)O2)n1	%	-3.33
CC(C(=O)NCc1ccnc(N2CCCC2)c1)n1cncn1 (stereo unspecified)	%	27.3
CC(C)c1ncc2c(n1)CN(Cc1nc(-c3ccoc3)no1)CC2	%	-1.63
CCCn1ccc(C(=O)N2CCOC(c3nc(-c4cccs4)no3)C2)n1 (stereo unspecified)	%	-0.831
Cc1nc(C)n(CC2CCCN2Cc2cc(C)on2)n1 (stereo unspecified)	%	8.12

* * *

target: Shiga toxin 2 (Escherichia coli O157:H7) (UniProt P09385+P09386); assay: E. coli 0.157:H7 Shiga Toxin SOP - stx2 screening assay; format: functional; parameters: scale not given: direction of the effect not stated beside the values; details: 30 µM
Measured Percent Effect by item
Assay endpoint: Percent Effect (%)

Compound	Tested system	Assay endpoint	Reported value
CCCn1nc2c(cc1=O)CN(CC(=O)Nc1ccncc1)CC2	Shiga toxin 2 (Escherichia coli O157:H7) (UniProt P09385+P09386)	Percent Effect	-19.5
Cc1cnc(CNc2c(F)cccc2-n2cccn2)o1	Shiga toxin 2 (Escherichia coli O157:H7) (UniProt P09385+P09386)	Percent Effect	-27.4
CCc1ccccc1C(=O)N1CCN(S(C)(=O)=O)[C@@H](C)C1	Shiga toxin 2 (Escherichia coli O157:H7) (UniProt P09385+P09386)	Percent Effect	-3
CCC(=O)N1Cc2nccn2CC(CN(C)Cc2cccnc2)C1 (configuration not stated)	Shiga toxin 2 (Escherichia coli O157:H7) (UniProt P09385+P09386)	Percent Effect	-5.95
Cc1cc(C(=O)NCCN2CCCC(C)C2)nn1C (configuration not stated)	Shiga toxin 2 (Escherichia coli O157:H7) (UniProt P09385+P09386)	Percent Effect	11.8
O=C(NCCNc1ncccn1)N1CCN(Cc2cccnc2)CC1	Shiga toxin 2 (Escherichia coli O157:H7) (UniProt P09385+P09386)	Percent Effect	-6.42
CNc1cc2c(nn1)CCN(C(=O)c1ccoc1)C2	Shiga toxin 2 (Escherichia coli O157:H7) (UniProt P09385+P09386)	Percent Effect	28.5
O=C1CC(c2ccccc2F)c2c(n3ccsc3nc2=O)N1 (configuration not stated)	Shiga toxin 2 (Escherichia coli O157:H7) (UniProt P09385+P09386)	Percent Effect	-23
CCOc1ccccc1-c1noc(CN2CCCC(O)C2)n1 (configuration not stated)	Shiga toxin 2 (Escherichia coli O157:H7) (UniProt P09385+P09386)	Percent Effect	2.11
Cc1ccc(CNC(=O)CN2C=Nc3ccccc3S2(=O)=O)s1	Shiga toxin 2 (Escherichia coli O157:H7) (UniProt P09385+P09386)	Percent Effect	9.11
O=C(C1CCOCC1)N1C[C@@H]2[C@@H](C1)OCC(=O)N2CC1CC1	Shiga toxin 2 (Escherichia coli O157:H7) (UniProt P09385+P09386)	Percent Effect	-0.921
O=C(CN1CCC(c2ccnn2CCO)CC1)NCC1CC1	Shiga toxin 2 (Escherichia coli O157:H7) (UniProt P09385+P09386)	Percent Effect	-19.2

* * *

molecular target: Shiga toxin 2 (Escherichia coli O157:H7) (UniProt P09385+P09386); test: E. coli 0.157:H7 Shiga Toxin SOP - stx2 screening assay; format: functional; design: scale not given: direction of the effect not stated beside the values; conditions: 30 µM
Rule: Percent Effect of -10% or more gives Met; anything lower gives Not met.

Compound	Class assignment
CN(CC1(O)CCCN(c2ccccn2)C1)C(=O)Cc1ccsc1 (stereo not given)	Met
COCC1CN(C(=O)C2=CCCCC2)Cc2cnn(CC3CC3)c21 (stereo not given)	Met
Cc1nc(CN2CCc3nn(C(C)C)c(=O)cc3C2)oc1C	Met
CN(Cc1ccco1)Cc1cncc2c1CCN(c1ncccn1)C2	Not met
Cc1nc(C)n(CC2CN(Cc3cccnc3)CCO2)n1 (stereo not given)	Met
CC(=O)N1CCN(Cn2nc(-c3ccc(F)cc3)oc2=O)CC1	Not met
COCCN1CCN(C(=O)c2ccncc2F)Cc2cccnc21	Not met
Cc1ccc(C(=O)N2CCCC(C(=O)N3CCCCC3)C2)c(O)c1 (stereo not given)	Met
O=C(O)c1ccc(S(=O)(=O)Nc2ccc(Cl)c(F)c2)c(F)c1	Not met
COc1ccc(NC(C)C(=O)N2CCN(Cc3ccccc3)CC2)cn1 (stereo not given)	Not met
c1cncc(COCC2CN(Cc3ccco3)Cc3ccnn3C2)c1 (stereo not given)	Not met
CCOCCCNc1nc(O)cc(C2CC(=O)N(C)C2)n1 (stereo not given)	Not met
O=C1N(Cc2cccnc2)CCC12CCCNC2 (stereo not given)	Met
CCc1nc(CN(C)C2CCN(Cc3cnc(C)cn3)C2)no1 (stereo not given)	Not met
CC(C)c1noc(CCC(=O)NCC2CCOC2)n1 (stereo not given)	Met
Cn1nc(C(=O)NCc2ccccn2)c2c1CCS(=O)(=O)C2	Not met
COc1ccc(Cl)cc1CC(=O)N1CCN(CCO)CC1	Met
O=C(NCCCN1CCCCC1)c1ccc(-n2ccc3ccccc32)s1	Not met
Cc1cc(CN(C)C(=O)c2cc3c([nH]c2=O)CCCC3=O)no1	Met
O=C(CCC1CCCC1)NCCn1nc(C2CCNC2)c2nccnc21 (stereo not given)	Not met
O=C(c1ccco1)N1CCC2(CCC(=O)N2Cc2cccc(F)c2)CC1	Met
Cc1ncsc1C(=O)Nc1cccc(OCC(F)F)n1	Met
CC(C)NC(=O)CC1COC2(CCN(Cc3cccs3)CC2)C1 (stereo not given)	Not met
CC(C)CCn1[nH]c(CNc2ccccc2)nc1=O	Met
COc1ccnc(N2CCN(C(=O)c3csc(C(C)C)n3)CC2)n1	Met

* * *

Measured Percent Effect by item
biological target: Shiga toxin 2 (Escherichia coli O157:H7) (UniProt P09385+P09386); experiment: E. coli 0.157:H7 Shiga Toxin SOP - stx2 screening assay; assay type: functional; set-up: scale not given: direction of the effect not stated beside the values; conditions: 30 µM
Assay endpoint: Percent Effect (%)

Molecule	Assay endpoint	Unit text	Reported value
Cc1cc(C(=O)N2CCCC(n3ccnc3C)C2)c(C)s1 (stereo not drawn)	Percent Effect	%	-6.7
COCC(=O)N1CC[C@H]2C[C@H](C)O[C@@H]2C1	Percent Effect	%	3.29
NC(=O)N1C[C@H]2CN(Cc3nccs3)C[C@H]2C1	Percent Effect	%	-3.75
Cc1nc(CN2CCOC(c3nc(C(C)C)n[nH]3)C2)oc1C (stereo not drawn)	Percent Effect	%	-9.33
Cc1ccc(C(=O)Nc2cn[nH]c2)cn1	Percent Effect	%	15.1
c1cc(CNCC2CNc3ccnn3C2)cc(N2CCCCC2)n1 (stereo not drawn)	Percent Effect	%	-110
Cc1cccc(-c2noc(CN3CC(n4cc(C)cn4)C3)n2)c1	Percent Effect	%	-2.34
CCCC(C)CN1CCC(n2cc(CCCO)nn2)CC1 (stereo not drawn)	Percent Effect	%	-23.7
Cc1nc(-c2ccc(Cl)s2)sc1C(=O)NCCS(N)(=O)=O	Percent Effect	%	-17.2
COc1cc(CN(C)C(=O)Cc2c(C)nn(C)c2C)ccc1OC(F)F	Percent Effect	%	-4.8
CS(=O)(=O)N1CCC2(CC1)CC(CC(=O)N1CCCC1)c1ccccc12 (stereo not drawn)	Percent Effect	%	8.75
CC1CN(Cc2nccn2C)CCN1c1ccc2nncn2n1 (stereo not drawn)	Percent Effect	%	-28.7
OC(COCc1ccc(Cl)cc1)CN1CCC(c2ccn[nH]2)CC1 (stereo not drawn)	Percent Effect	%	-33
CC1CN(CC(=O)Nc2nncs2)CCN1Cc1nccn1C (stereo not drawn)	Percent Effect	%	12.1
Cc1nsc(N2CCCN(c3nc(C4CC4)ns3)CC2)n1	Percent Effect	%	-18.6
NC(=O)COc1ccc(CNCc2ccc(F)c(F)c2)cc1	Percent Effect	%	-31.1
Cc1noc(CN(Cc2ccc3c(c2)OCO3)Cc2ccc(C)o2)n1	Percent Effect	%	29
CNc1cncc(C2CCCN2Cc2ccccn2)n1 (stereo not drawn)	Percent Effect	%	-10.2
O=S(=O)(CCCN1CCCC1Cn1cccn1)c1ccccc1 (stereo not drawn)	Percent Effect	%	-4.23
CC(NC(=O)NCc1ccc(Cl)cc1)c1ccccn1 (stereo not drawn)	Percent Effect	%	-27.4
Cc1nc(C2CCCN2Cc2ncc(C(C)C)o2)no1 (stereo not drawn)	Percent Effect	%	-16.6
CC1CCN(CCNC(=O)c2cncnc2C(C)C)CC1	Percent Effect	%	-18.7
COCCN1CCCC1c1nccnc1Nc1nc(C)cs1 (stereo not drawn)	Percent Effect	%	0.955
O=C(c1cc(COc2ccc3c(c2)OCO3)[nH]n1)N1CCOCC1	Percent Effect	%	-36.8
Cc1cc(CN(C)Cc2cc3c(cc2OC(F)F)OCO3)on1	Percent Effect	%	19.4
Cc1nc(C)n(CC2CCCN2Cc2nc3ccccc3nc2C)n1 (stereo not drawn)	Percent Effect	%	-7.98
O=C(NCCc1coc(-c2ccc(F)cc2)n1)NC1CCC(O)CC1 (stereo not drawn)	Percent Effect	%	-24.9
Cc1cnn(C2CCCN(C(=O)c3sccc3-n3cnnn3)C2)c1 (stereo not drawn)	Percent Effect	%	-40.9
Cc1cccc(C(=O)N2C[C@@H](OCc3cccnc3)[C@H]3OCCC[C@@H]32)n1	Percent Effect	%	-30.7
NS(=O)(=O)CCNC(=O)c1ccc(-c2ccc(F)cc2)cc1F	Percent Effect	%	-53.6
Cc1cnn(CC2CCCN2Cc2ncc(-c3ccccc3)o2)c1 (stereo not drawn)	Percent Effect	%	25.3
Cc1cccc(CN2C[C@@H]3CN(C(=O)c4ccsc4)C[C@@H]3C2=O)c1	Percent Effect	%	-27.2
Cc1ccc(C)n1-c1ccc(C(=O)NCCNc2ncccn2)cc1	Percent Effect	%	7.86
Cn1cc(Cl)cc1C(=O)N1CCCN(Cc2cccs2)CC1	Percent Effect	%	19.8
CC(C)OCCCNC(=O)CS(=O)(=O)Cc1ccc(Cl)c(Cl)c1	Percent Effect	%	30.4
CCOc1cccc(C(C)NC(=O)N2CCC(C(N)=O)CC2)c1 (stereo not drawn)	Percent Effect	%	11.2
COCc1nc(C(=O)N2CCCC(n3cccn3)C2)cs1 (stereo not drawn)	Percent Effect	%	-22.6
Cc1nn(C)c(C)c1C(C)NC(=O)Nc1cccnc1N1CCCC1 (stereo not drawn)	Percent Effect	%	10.7
Cc1nn(C)c2cnn(CC(=O)NCCc3ccccc3)c12	Percent Effect	%	-33.3
CNc1cncc(C2CCCN2Cc2ccccc2OCC(=O)O)n1 (stereo not drawn)	Percent Effect	%	3.64
c1ccc(-c2nc(CN3CCCC3Cn3cncn3)cs2)cc1 (stereo not drawn)	Percent Effect	%	5.25
CCCN(CC)C(=O)c1cc2c(c3ccccc3n2C)n1C(=O)N(C)C	Percent Effect	%	2.44
COc1ccc(C(=O)NCC(c2cccn2C)N2CCCC2)c(OC)c1 (stereo not drawn)	Percent Effect	%	-22.3
Cc1ncsc1C(=O)N(Cc1cccnc1)C1CC1	Percent Effect	%	5.93
c1cnnc(N2CCCC2CNCc2cnc(N3CCCC3)nc2)c1 (stereo not drawn)	Percent Effect	%	-6.77
CCc1c(C)sc(NC(=O)CN2CCN(CC)CC2)c1C(=O)OC	Percent Effect	%	-31.3
CC(=O)Nc1nc(CN2CCCC2Cn2cc(C)cn2)cs1 (stereo not drawn)	Percent Effect	%	-25.9
CC(NC(=O)NCc1cccc(N2CCCC2=O)c1)c1ccccc1 (stereo not drawn)	Percent Effect	%	21.2
